# Measurement Target: UniProtKB P42338
# Sequence (P42338 whole entry, canonical isoform): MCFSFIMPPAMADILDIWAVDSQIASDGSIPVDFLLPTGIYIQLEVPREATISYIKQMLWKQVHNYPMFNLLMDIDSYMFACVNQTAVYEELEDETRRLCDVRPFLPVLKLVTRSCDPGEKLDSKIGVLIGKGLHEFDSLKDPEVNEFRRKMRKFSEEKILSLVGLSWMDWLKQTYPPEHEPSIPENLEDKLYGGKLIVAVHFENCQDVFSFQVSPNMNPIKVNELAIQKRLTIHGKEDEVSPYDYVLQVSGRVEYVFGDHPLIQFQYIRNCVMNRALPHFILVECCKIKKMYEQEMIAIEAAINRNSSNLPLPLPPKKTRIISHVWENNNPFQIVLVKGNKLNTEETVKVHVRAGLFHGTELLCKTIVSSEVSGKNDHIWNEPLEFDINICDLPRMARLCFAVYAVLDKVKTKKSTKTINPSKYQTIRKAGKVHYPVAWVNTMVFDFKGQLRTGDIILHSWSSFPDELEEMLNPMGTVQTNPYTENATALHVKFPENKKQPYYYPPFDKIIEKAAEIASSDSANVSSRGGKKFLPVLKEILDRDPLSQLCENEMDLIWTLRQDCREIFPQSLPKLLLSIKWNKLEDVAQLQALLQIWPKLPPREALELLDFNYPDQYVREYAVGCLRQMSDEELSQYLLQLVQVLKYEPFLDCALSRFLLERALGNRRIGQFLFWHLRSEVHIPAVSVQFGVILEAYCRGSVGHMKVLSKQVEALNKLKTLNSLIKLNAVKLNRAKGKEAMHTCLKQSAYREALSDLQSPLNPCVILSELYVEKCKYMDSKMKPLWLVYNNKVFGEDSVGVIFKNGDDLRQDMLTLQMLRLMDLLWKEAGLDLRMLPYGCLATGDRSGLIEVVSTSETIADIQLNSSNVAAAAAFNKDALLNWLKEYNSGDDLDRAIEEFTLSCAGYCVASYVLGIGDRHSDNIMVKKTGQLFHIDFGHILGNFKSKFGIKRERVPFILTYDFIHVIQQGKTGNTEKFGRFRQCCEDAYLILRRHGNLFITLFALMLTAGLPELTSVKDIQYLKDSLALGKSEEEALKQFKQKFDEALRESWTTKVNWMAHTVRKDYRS
# Sequence (P27986 whole entry partner, canonical isoform): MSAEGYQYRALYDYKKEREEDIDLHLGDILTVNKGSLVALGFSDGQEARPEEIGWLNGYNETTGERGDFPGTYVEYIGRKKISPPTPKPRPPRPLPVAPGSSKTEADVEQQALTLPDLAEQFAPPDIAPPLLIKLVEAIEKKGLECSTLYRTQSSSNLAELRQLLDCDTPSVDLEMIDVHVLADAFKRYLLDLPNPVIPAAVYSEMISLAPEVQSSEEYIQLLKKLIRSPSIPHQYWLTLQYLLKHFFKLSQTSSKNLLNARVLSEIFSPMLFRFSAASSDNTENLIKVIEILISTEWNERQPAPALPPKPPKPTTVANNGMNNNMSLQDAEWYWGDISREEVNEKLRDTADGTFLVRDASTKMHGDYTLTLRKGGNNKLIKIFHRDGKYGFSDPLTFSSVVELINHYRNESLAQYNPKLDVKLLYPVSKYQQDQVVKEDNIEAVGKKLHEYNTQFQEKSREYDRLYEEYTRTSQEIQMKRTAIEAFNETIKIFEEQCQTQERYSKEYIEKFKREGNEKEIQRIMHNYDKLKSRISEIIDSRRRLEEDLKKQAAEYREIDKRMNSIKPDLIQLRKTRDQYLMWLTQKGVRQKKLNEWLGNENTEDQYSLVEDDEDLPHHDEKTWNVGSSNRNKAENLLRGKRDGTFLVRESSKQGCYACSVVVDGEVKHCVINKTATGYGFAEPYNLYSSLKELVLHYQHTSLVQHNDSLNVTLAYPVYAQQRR
# Assay Method Text: Fluorescent (HTRF) determination of PI3K enzyme activity, β isoform
# Assay type: biochemical
Measured Attribute: inhibition at 1 µM

So, CC(c1oc2ccccc2c(=O)c1-c1cccc(F)c1)n1nc(-c2csc(C=O)c2)c2c(N)ncnc21 (stereo not shown) ? Its inhibition at 1 µM was < 25%

So, CC(c1oc2ccccc2c(=O)c1-c1cccc(F)c1)n1nc(-c2ccc(N(C)C)cc2)c2c(N)ncnc21 (stereo not shown) ? Its inhibition at 1 µM was 50 to 100%

So, Cc1cc(-c2nn(C(C)c3oc4ccccc4c(=O)c3-c3cccc(F)c3)c3ncnc(N)c23)ccn1 (stereo not shown) ? Its inhibition at 1 µM was 25 to 50%

So, Nc1ncnc2c1c(-c1cn[nH]c1)nn2Cc1oc2ccc(F)cc2c(=O)c1-c1ccccc1 ? Its inhibition at 1 µM was < 25%

So, CC(c1oc2ccccc2c(=O)c1-c1cccc(F)c1)n1nc(-c2cccc3c2oc2ccccc23)c2c(N)ncnc21 (stereo not shown) ? Its inhibition at 1 µM was 25 to 50%

So, Nc1ncnc2c1c(-c1cccc(O)c1)nn2Cc1oc2ccccc2c(=O)c1-c1ccccc1 ? Its inhibition at 1 µM was 50 to 100%

So, CC(=O)c1ccc(-c2nn(C(C)c3oc4ccccc4c(=O)c3-c3cccc(F)c3)c3ncnc(N)c23)cc1 (stereo not shown) ? Its inhibition at 1 µM was < 25%

---

# Measurement Target: P110α (Homo sapiens, UniProt P42336)
# Sequence (P42336 whole entry, canonical isoform): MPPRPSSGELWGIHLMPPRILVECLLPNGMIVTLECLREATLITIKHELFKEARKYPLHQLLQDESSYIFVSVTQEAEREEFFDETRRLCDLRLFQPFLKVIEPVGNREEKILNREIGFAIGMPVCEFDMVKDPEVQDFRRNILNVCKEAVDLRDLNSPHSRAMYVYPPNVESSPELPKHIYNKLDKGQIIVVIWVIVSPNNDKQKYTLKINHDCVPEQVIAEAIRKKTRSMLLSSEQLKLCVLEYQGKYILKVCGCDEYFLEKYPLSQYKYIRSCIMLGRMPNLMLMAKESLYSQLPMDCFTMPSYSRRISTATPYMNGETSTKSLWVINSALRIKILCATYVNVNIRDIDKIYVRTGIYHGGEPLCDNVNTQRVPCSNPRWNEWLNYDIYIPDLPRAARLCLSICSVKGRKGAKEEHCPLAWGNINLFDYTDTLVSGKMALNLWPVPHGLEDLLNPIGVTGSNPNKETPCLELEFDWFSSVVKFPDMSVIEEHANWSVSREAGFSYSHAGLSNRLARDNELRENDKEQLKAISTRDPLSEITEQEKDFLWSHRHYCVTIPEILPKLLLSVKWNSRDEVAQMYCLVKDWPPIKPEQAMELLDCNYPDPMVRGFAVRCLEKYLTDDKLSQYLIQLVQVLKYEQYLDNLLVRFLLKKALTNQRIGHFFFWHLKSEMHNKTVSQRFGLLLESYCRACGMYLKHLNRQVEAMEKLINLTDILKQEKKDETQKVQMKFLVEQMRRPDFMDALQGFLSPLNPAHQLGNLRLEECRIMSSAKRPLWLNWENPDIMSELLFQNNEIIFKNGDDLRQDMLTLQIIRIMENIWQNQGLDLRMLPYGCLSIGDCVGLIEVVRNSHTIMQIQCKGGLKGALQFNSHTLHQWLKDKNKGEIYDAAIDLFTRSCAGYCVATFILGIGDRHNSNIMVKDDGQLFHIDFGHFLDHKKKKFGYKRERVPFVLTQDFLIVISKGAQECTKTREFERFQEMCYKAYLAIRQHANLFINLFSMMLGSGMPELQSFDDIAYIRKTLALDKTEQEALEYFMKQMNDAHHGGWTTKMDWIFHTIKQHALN
# Sequence (P27986 whole entry partner, canonical isoform): as the sequence (P27986 whole entry partner, canonical isoform) above
# Assay Method Text: Fluorescent (HTRF) determination of PI3K enzyme activity, α isoform
# Assay type: biochemical
The compounds listed here are annotated with their inhibition at 1 µM.

COc1cccc(-c2nn(C(C)c3oc4ccccc4c(=O)c3-c3cccc(F)c3)c3ncnc(N)c23)c1 (centres unmarked) [Example 51] :: < 25%
Nc1ncnc2c1c(-c1cccc(O)c1)nn2Cc1oc2ccccc2c(=O)c1-c1ccccc1 [Example 53] :: < 25%
CC(c1oc2ccccc2c(=O)c1-c1ccccc1)n1cnc2c(N)ncnc21 (centres unmarked) [Example 23] :: < 25%
COc1c(C)cc(-c2nn(C(C)c3oc4ccccc4c(=O)c3-c3cccc(F)c3)c3ncnc(N)c23)cc1C (centres unmarked) [Example 131] :: 25 to 50%
C[C@H](Nc1ncnc2[nH]cnc12)c1oc2ccc(F)cc2c(=O)c1-c1ccccc1 [Example 57] :: < 25%
CC(c1oc2ccccc2c(=O)c1-c1cccc(F)c1)n1nc(-c2ccc(O)c(F)c2)c2c(N)ncnc21 (centres unmarked) [Example 85] :: 25 to 50%

So, CC(c1oc2ccccc2c(=O)c1-c1cccc(F)c1)n1nc(-c2ccc3c(c2)OCCO3)c2c(N)ncnc21 (centres unmarked) [Example 133] ? Its inhibition at 1 µM was < 25%

So, C[C@@H](Nc1ncnc2[nH]cnc12)c1oc2ccc(F)cc2c(=O)c1-c1cccc(F)c1 [Example 124] ? Its inhibition at 1 µM was < 25%

---

# Measurement Target: P110γ (Homo sapiens, UniProt P48736)
# Sequence (P48736 whole entry, canonical isoform): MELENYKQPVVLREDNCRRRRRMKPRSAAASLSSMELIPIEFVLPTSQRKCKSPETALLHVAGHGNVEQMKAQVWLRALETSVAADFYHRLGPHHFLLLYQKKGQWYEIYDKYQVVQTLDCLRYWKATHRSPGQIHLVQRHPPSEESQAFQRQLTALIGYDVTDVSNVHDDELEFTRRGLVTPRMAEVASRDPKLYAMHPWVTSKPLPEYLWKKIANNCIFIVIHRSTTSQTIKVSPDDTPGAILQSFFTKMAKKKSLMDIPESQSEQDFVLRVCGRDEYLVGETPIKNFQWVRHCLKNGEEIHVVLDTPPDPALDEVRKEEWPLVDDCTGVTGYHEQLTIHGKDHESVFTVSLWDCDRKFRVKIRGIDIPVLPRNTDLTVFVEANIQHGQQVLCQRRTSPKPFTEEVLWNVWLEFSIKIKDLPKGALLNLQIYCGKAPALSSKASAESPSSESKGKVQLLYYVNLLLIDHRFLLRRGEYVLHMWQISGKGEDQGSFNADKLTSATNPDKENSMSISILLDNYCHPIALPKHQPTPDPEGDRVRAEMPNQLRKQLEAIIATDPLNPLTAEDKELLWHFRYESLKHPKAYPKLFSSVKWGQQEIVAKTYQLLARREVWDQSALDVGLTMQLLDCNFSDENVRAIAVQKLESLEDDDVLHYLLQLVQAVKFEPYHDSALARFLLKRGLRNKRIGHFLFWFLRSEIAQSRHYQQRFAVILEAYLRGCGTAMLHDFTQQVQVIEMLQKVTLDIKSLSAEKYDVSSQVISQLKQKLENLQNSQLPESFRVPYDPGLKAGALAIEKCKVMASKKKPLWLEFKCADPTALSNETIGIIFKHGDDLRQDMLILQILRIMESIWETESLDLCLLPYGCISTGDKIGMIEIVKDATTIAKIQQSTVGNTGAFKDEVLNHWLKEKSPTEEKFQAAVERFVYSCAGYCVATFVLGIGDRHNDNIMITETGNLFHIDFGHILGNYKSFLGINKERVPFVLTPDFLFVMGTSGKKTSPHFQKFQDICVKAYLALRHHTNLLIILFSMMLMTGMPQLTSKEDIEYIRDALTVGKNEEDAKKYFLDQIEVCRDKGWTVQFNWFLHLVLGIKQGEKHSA
# Assay Method Text: Fluorescent (HTRF) determination of PI3K enzyme activity, γ isoform
# Assay type: biochemical
Measured Attribute: inhibition at 1 µM

So, C[C@H](Nc1ncnc2[nH]cnc12)c1oc2ccc(F)cc2c(=O)c1-c1cccc(F)c1 ? Its inhibition at 1 µM was 25 to 50%

So, Cc1n[nH]c2cc(-c3nn(C(C)c4oc5ccccc5c(=O)c4-c4cccc(F)c4)c4ncnc(N)c34)ccc12 (stereo not drawn) ? Its inhibition at 1 µM was 25 to 50%

So, CC(C)Oc1ccc(-c2nn(C(C)c3oc4ccccc4c(=O)c3-c3cccc(F)c3)c3ncnc(N)c23)cc1Cl (stereo not drawn) ? Its inhibition at 1 µM was 50 to 100%

So, Cc1n[nH]c2cc(-c3nn(C(C)c4oc5ccc(F)cc5c(=O)c4-c4ccccc4)c4ncnc(N)c34)ccc12 (stereo not drawn) ? Its inhibition at 1 µM was 50 to 100%

So, Nc1ncnc2c1c(-c1cc(O)cc(F)c1)nn2Cc1oc2ccccc2c(=O)c1-c1cccc(F)c1 ? Its inhibition at 1 µM was < 25%

So, CC(c1oc2ccccc2c(=O)c1-c1cccc(F)c1)n1cnc2c(N)ncnc21 (stereo not drawn) ? Its inhibition at 1 µM was < 25%

So, CC(c1oc2ccccc2c(=O)c1-c1cccc(F)c1)n1nc(-c2ccc(OCc3ccccc3)c(Cl)c2)c2c(N)ncnc21 (stereo not drawn) ? Its inhibition at 1 µM was 25 to 50%

So, CCOc1ccc(-c2nn(C(C)c3oc4ccccc4c(=O)c3-c3cccc(F)c3)c3ncnc(N)c23)cc1F (stereo not drawn) ? Its inhibition at 1 µM was < 25%

So, Cc1n[nH]c2cc(-c3nn(C(C)c4oc5ccc(F)cc5c(=O)c4-c4cccc(F)c4)c4ncnc(N)c34)ccc12 (stereo not drawn) ? Its inhibition at 1 µM was 50 to 100%

So, CC(c1oc2ccccc2c(=O)c1-c1ccccc1)n1nc(-c2cccc(O)c2)c2c(N)ncnc21 (stereo not drawn) ? Its inhibition at 1 µM was < 25%
